B1: OR4K15 (parent)
chain: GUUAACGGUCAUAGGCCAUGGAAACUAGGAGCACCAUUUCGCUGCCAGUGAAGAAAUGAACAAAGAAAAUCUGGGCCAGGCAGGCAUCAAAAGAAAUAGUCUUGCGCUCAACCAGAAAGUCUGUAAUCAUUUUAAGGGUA

Variants of: B1
procedure_summary: self-cleavage, relative activity (ratio to wild type); higher = more cleavage; in vitro, sequencing; the parent is a self-cleaving ribozyme
Assignment: determine reported self-cleavage for the given variants.
# print the numeric value only

### Prompt Quick one: self-cleavage for U37G U131C ?
### Response 1.37

### Prompt What do you have for U3C A60C ?
### Response 0.91

### Prompt What do you have for A78G U130A ?
### Response 0.17

### Prompt What do you have for U37C U72C ?
### Response 0.26

### Prompt What do you have for U39G A51G ?
### Response 1.75

### Prompt What do you have for U49A A116G ?
### Response 0.3

### Prompt What do you have for A27U A91G ?
### Response 1.19

### Prompt What do you have for A51G U97C ?
### Response 1.75

### Prompt What do you have for A23G U43C ?
### Response 1.38

### Prompt What do you have for A52G U72C ?
### Response 0.27

### Prompt What do you have for U26C A90G ?
### Response 1.11

### Prompt What do you have for A47G A111G ?
### Response 0.02

### Prompt What do you have for A55G U72C ?
### Response 0.28

### Prompt What do you have for A59G A114G ?
### Response 0.26

### Prompt What do you have for A23U U87C ?
### Response 1.08

### Prompt What do you have for A114C A117G ?
### Response 0.05

### Prompt What do you have for U43C A55G ?
### Response 1.07

### Prompt What do you have for C88A U130C ?
### Response 1.42

### Prompt What do you have for A51G A126G ?
### Response 0.71

### Prompt What do you have for U49A U108A ?
### Response 0.02

### Prompt What do you have for A33G U70C ?
### Response 0.22

### Prompt What do you have for U9C A140G ?
### Response 1.33

### Prompt What do you have for A69G U127A ?
### Response 1.8

### Prompt What do you have for A92G U127A ?
### Response 2.33

### Prompt What do you have for U43C A114C ?
### Response 0.03

### Prompt What do you have for U87C U102A ?
### Response 0.83

### Prompt What do you have for U103C A134U ?
### Response 0.78

### Prompt What do you have for A114U G123A ?
### Response 0.11

### Prompt What do you have for U49G U132C ?
### Response 1.1

### Prompt What do you have for G75C A129G ?
### Response 0.07

### Prompt What do you have for U37C U57A ?
### Response 0.99

### Prompt What do you have for C42U A60G ?
### Response 1.17

### Prompt What do you have for U2C A30U ?
### Response 0.98

### Prompt What do you have for G7U U108A ?
### Response 0.06

### Prompt What do you have for G15C A68C ?
### Response 2.44

### Prompt What do you have for U72C U131A ?
### Response 0.1

### Prompt What do you have for A98U A135G ?
### Response 2.4

### Prompt What do you have for U103C G106A ?
### Response 0.02
